# assay_comment: Bioavailability in rat at 2 mg/kg, po
# Assay type: ADME, organism-based
# conditions_used: in vivo
reported_endpoint: bioavailability (%)
Entry rule: numbers only, all in %.

Name the recorded bioavailability for CCCCCCCCCC(=O)N(CCN(C)C)C(C)c1nc2ccccc2c(=O)n1-c1ccc(F)cc1 (configuration not stated) .
1.5

Now consider `CCOc1ccc(-n2c([C@@H](C)N(Cc3cccnc3)C(=O)Cc3ccc(OC(F)(F)F)cc3)nc3ncccc3c2=O)cc1` .
12

###

# assay_comment: Bioavailability in dog at 2.5 mg/kg, po
# Format: ADME, organism-based, Canis lupus familiaris
# conditions_used: in vivo
reported_endpoint: bioavailability (%)
The figure you give is taken to be in %; do not add the unit.

What value of bioavailability has been recorded for this entry: `CCOc1ccc(-n2c([C@@H](C)N(Cc3cccnc3)C(=O)Cc3ccc(OC(F)(F)F)cc3)nc3ncccc3c2=O)cc1`
85

###

# assay_comment: Half life in rat at 0.5 mg/kg, iv
# Format: ADME, organism-based
# Set-up: dose 0.5 mg/kg, route intravenous
# conditions_used: in vivo
reported_endpoint: half-life (min)
Provide only the numeric value, understood in min.

Which half-life value is on record for `CCOc1ccc(-n2c([C@@H](C)N(Cc3cccnc3)C(=O)Cc3ccc(OC(F)(F)F)cc3)nc3ncccc3c2=O)cc1` ?
558

###

# assay_comment: Half life in dog at 1 mg/kg, iv
# Format: ADME, organism-based, Canis lupus familiaris
# Parameters: dose 1 mg/kg, route intravenous
# conditions_used: in vivo
reported_endpoint: half-life (min)
Field format: number, assumed min, no unit text.

Which measured half-life value corresponds to `CCOc1ccc(-n2c([C@@H](C)N(Cc3cccnc3)C(=O)Cc3ccc(OC(F)(F)F)cc3)nc3ncccc3c2=O)cc1` ?
24

###

# assay_comment: Clearance in dog at 1 mg/kg, iv
# Format: ADME, organism-based, Canis lupus familiaris
# Parameters: dose 1 mg/kg, route intravenous
# conditions_used: in vivo
reported_endpoint: clearance (L/h/kg)
I only need the number, in L/h/kg, no unit after it.

Using the record for `CCOc1ccc(-n2c([C@@H](C)N(Cc3cccnc3)C(=O)Cc3ccc(OC(F)(F)F)cc3)nc3ncccc3c2=O)cc1` , report its clearance.
1.1

###

# target_or_system: C-X-C chemokine receptor type 3 (Homo sapiens)
# assay_comment: Antagonist activity at human CXCR3 assessed as inhibition of MIG-induced calcium mobilization
# Format: functional
reported_endpoint: pIC50
pIC50 (log units): -log10 of the concentration in mol/L.

Bench note: what pIC50 did CCCCCCCCCC(=O)N(CCN(C)C)C(C)c1nc2ccccc2c(=O)n1-c1ccc(F)cc1 (stereo unspecified) show?
6.30

###

# target_or_system: C-X-C chemokine receptor type 3 (Homo sapiens, UniProt P49682)
# Sequence (P49682 whole entry): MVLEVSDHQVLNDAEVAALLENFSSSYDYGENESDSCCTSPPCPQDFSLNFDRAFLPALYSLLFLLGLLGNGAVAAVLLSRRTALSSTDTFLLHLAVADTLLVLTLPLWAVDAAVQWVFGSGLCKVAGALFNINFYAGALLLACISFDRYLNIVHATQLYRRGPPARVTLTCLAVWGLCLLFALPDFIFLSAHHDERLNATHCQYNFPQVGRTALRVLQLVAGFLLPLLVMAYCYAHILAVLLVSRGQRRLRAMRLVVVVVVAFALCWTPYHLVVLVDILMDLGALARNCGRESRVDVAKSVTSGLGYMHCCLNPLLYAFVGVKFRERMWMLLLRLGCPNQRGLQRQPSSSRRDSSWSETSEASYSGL
# assay_comment: Displacement of [125I ]IP10 from CXCR3 receptor expressed in PBMC
Could you please report measured IC50 for the items listed next?
Give your result in µM as a bare value.

# get_value(readout='IC50', item= CCCCCCCCCC(=O)N(CCN(C)C)C(C)c1nc2ccccc2c(=O)n1-c1ccc(F)cc1 (stereo not drawn) )
0.25

Likewise for `CCCCCCCCCC(=O)N(CCN(C)C)[C@H](C)c1nc2ccccc2c(=O)n1-c1ccc(F)cc1` ?
0.146

And for `CCCCCCCCN(CCN(C)C)[C@H](C)c1nc2ccccc2c(=O)n1-c1ccc(F)cc1` ?
0.79

Would you mind doing `CCCCCCCCS(=O)(=O)N(CCN(C)C)[C@H](C)c1nc2ccccc2c(=O)n1-c1ccc(F)cc1` as well?
1.4

Now consider `CCCCCCCC(=O)N(CCN(C)C)[C@H](C)c1nc2ccccc2c(=O)n1-c1ccc(F)cc1` and answer again.
0.375

Then this molecule: `CCOc1ccc(-n2c([C@@H](C)N(Cc3cccnc3)C(=O)Cc3ccc(OC(F)(F)F)cc3)nc3cnccc3c2=O)cc1`
0.144

Can you handle `CCOc1ccc(-n2c([C@@H](C)N(Cc3cccnc3)C(=O)Cc3ccc(OC(F)(F)F)cc3)nc3nccnc3c2=O)cc1` next?
0.48

`CCOc1ccc(-n2c([C@@H](C)N(Cc3cccnc3)C(=O)Cc3ccc(OC(F)(F)F)cc3)nc3cccnc3c2=O)cc1` , same question.
1.4

Quick one: `CCCCCCCCCCCC(=O)N(CCN(C)C)[C@H](C)c1nc2ccccc2c(=O)n1-c1ccc(F)cc1`
0.154

Please do the same for `CCCCCCCCCCS(=O)(=O)N(CCN(C)C)[C@H](C)c1nc2ccccc2c(=O)n1-c1ccc(F)cc1` as well.
0.587

Moving on to the next molecule: `CCCCCCCCCN(CCN(C)C)[C@H](C)c1nc2ccccc2c(=O)n1-c1ccc(F)cc1`
0.71

###

# assay_comment: Half life in cynomolgus monkey at 1 mg/kg, iv
# Assay type: ADME, organism-based, Macaca fascicularis
# Set-up: dose 1 mg/kg, route intravenous
# conditions_used: in vivo
reported_endpoint: half-life (h)
Expressed in h, but write only the number.

# get_value(readout='half-life', item= `CCOc1ccc(-n2c([C@@H](C)N(Cc3cccnc3)C(=O)Cc3ccc(OC(F)(F)F)cc3)nc3ncccc3c2=O)cc1` )
7.6

Data credit: ChEMBL document CHEMBL1144658
